biological target: Nuclear receptor ROR-alpha (Homo sapiens); assay: Inverse agonist activity at human RORalpha transfected in HEK293 cells after 24 hrs by beta galactosidase luciferase reporter gene assay; type: cell-based; settings: read-out: IC50
Sequence (P35398 whole entry): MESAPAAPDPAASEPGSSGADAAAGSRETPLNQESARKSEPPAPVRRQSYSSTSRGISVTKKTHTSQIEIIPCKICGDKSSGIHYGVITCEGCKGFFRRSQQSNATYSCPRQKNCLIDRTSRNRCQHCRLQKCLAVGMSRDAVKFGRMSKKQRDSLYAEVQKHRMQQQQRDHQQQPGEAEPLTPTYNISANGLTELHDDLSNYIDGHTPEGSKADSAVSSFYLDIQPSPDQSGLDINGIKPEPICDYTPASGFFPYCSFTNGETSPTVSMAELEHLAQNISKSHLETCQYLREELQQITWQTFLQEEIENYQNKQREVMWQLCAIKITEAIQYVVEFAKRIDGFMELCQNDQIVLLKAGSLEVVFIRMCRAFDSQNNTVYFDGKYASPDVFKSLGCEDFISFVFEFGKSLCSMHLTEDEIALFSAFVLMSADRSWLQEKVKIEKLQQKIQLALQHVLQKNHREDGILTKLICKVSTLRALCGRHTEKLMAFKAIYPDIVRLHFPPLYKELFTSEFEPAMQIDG
pIC50: −log10 of the molar value.
readoutLabel: pIC50

>>> df
                            molecularstring  resultvalue
0  C[Si](C)(O)c1ccc(N(CC(F)(F)F)S(=O)(=O)c2ccccc2)cc1         4.28

----------
Target: PXR (NR1I2) (Homo sapiens)
Sequence (O75469 whole entry): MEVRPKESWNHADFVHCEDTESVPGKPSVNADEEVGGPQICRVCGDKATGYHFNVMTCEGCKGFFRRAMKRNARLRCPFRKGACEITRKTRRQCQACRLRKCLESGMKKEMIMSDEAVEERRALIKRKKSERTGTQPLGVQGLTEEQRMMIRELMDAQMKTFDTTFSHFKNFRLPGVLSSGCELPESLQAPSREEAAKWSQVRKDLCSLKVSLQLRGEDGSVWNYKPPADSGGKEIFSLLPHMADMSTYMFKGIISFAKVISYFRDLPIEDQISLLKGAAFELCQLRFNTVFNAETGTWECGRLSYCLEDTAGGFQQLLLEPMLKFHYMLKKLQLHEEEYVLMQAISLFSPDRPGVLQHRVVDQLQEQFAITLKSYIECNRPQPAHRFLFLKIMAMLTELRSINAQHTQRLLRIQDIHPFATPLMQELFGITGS
Assay: Agonist activity at human PXR transfected in HEK293 cells after 24 hrs by luciferase reporter gene assay relative to T0901317
Type: cell-based
Details: HEK293 cells transfected with human PXR, read-out: Efficacy

molecularString	Emax at 24 h, %
CO[C@H]1/C=C/O[C@@]2(C)Oc3c(C)c(O)c4c(O)c(c(/C=N/N5CCN(C)CC5)c(O)c4c3C2=O)NC(=O)/C(C)=C\C=C\[C@H](C)[C@H](O)[C@@H](C)[C@@H](O)[C@@H](C)[C@H](OC(C)=O)[C@@H]1C	75
C[Si](C)(O)c1ccc(N(CC(F)(F)F)S(=O)(=O)c2ccccc2)cc1	61
